Protocol: qHTS of pediatric cancer cell lines to identify multiple opportunities for drug repurposing: Confirmatory screen for NB-EBc1 cells (AID 1347115);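 also: cells exposed to compound for 48 h before the viability read; nearly all actives have a fitted effect of over 45% in size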
Experimental Setup: NB-EBc1 neuroblastoma cells, viability (cytotoxicity); series mostly up to 45.9 µM
Records with an inconclusive call do not appear. Active and inactive are the calls of the source. Calls follow the shape of the dose curve; as a rule, active = well fitted cell-killing curve with a large enough effect; inconclusive = small, poorly fitted or top-dose-only effect, or effect the other way; inactive = no such curve, though single readings can be large or run the other way.
Mark one answer only. Choices: active, inactive

>>> assigned_category("C[C@@]12C(=O)OC(=O)[C@]1(C)C1CCC2O1")
"active"
>>> assigned_category("CCN1/C(=C/C=C/c2sc3ccccc3[n+]2CC)Sc2ccccc21")
"active"

Prompt: Please indicate how the test categorized `CN(C)C(=O)Nc1ccc(Cl)c(Cl)c1` .
Response: active

Prompt: # repeat for `COc1ccc(C(=O)c2ccccc2)c(O)c1`
Response: inactive

Prompt: # repeat for CC1CCc2c(N3CCC(O)CC3)c(F)cc3c(=O)c(C(=O)O)cn1c23 (stereo not given)
Response: inactive

* * *

System: GB4
Protocol: qHTS profiling for inhibitors of Plasmodium falciparum proliferation (AID 504749); also: nearly all actives have a fitted effect of over 60% in size; also: potency is read from the fitted curve at half-maximal effect
Experimental Setup: P. falciparum in erythrocytes, SYBR Green DNA, 72 h; series mostly up to 28.7 µM
Results filed as inconclusive are left out. The source made the active and inactive calls. The call rests on the fitted dose curve; in most records, active means well fitted inhibition curve with a large enough effect; inconclusive means small, poorly fitted or top-dose-only effect; inactive means flat fitted curve, though single readings scatter.
Property Measured: Potency

Answered cases to consult:
>>> reported("COc1ccc(/C=N/NC(=O)c2ccncc2)cc1OC")
"inactive"
>>> reported("O=C1C(CCS(=O)c2ccccc2)C(=O)N(c2ccccc2)N1c1ccccc1 (stereo not given)")
"inactive"
>>> reported("Cc1ccc(S(=O)(=O)NC(=O)NC2CCCC2)cc1")
"inactive"
>>> reported("C[N+]1(CC2COC(c3ccccc3)(C3CCCCC3)O2)CCCCC1 (stereo not given)")
"3.38 µM (active)"
>>> reported("OCc1ccccn1")
"inactive"

Prompt: Report Potency for `CC(=O)Nc1ccc(S(=O)(=O)Nc2ccc([N+](=O)[O-])cc2)cc1` please.
Response: inactive

Prompt: # repeat for Cc1cc(C)cc(OCC2CNC(=O)O2)c1 (stereo not given)
Response: inactive

* * *

System: HB3
Protocol: qHTS profiling for inhibitors of Plasmodium falciparum proliferation (AID 504749); also: nearly all actives have a fitted effect of over 60% in size
Experimental Setup: P. falciparum in erythrocytes, SYBR Green DNA, 72 h; series mostly up to 28.7 µM
Results filed as inconclusive are left out. Activity calls are given as the source filed them. Calls follow the shape of the dose curve; as a rule, active = well fitted inhibition curve with a large enough effect; inconclusive = small, poorly fitted or top-dose-only effect; inactive = flat fitted curve, though single readings scatter.
Mark one answer only. Choices: yes (active), no (inactive)

>>> assigned_category("Nc1ccc(S(=O)(=O)NCc2ccccc2)cc1")
"no"

Prompt: Please indicate how the test categorized `CC(=O)Nc1ccc(OC(=O)c2ccccc2OC(C)=O)cc1` .
Response: no

* * *

Protocol: qHTS assay to identify small molecule inhibitors of chordoma cells - UCH-1 (AID 1259355); also: nearly all actives have a fitted effect of over 55% in size
Experimental Setup: UCH-1 chordoma viability, CellTiter-Glo, 48 h, combination, with auranofin plus four topoisomerase inhibitors; series mostly up to 46.1 µM
Inconclusive results are not listed. The source made the active and inactive calls. The call rests on the fitted dose curve; in most records, active means well fitted cell-killing curve with a large enough effect; inconclusive means small, poorly fitted or top-dose-only effect, or effect the other way; inactive means no such curve, though single readings can be large or run the other way.
Mark one answer only. Choices: YES (active), NO (inactive)

>>> assigned_category("CCOC(=O)[C@H](CCc1ccccc1)N[C@@H](C)C(=O)N1[C@H](C(=O)O)C[C@H]2CCCC[C@@H]21")
"NO"

Prompt: Please indicate how the test categorized `C=C1c2cccc(O)c2C(O)=C2C(=O)[C@]3(O)C(O)=C(C(N)=O)C(=O)[C@@H](N(C)C)[C@@H]3[C@@H](O)[C@H]12` .
Response: NO

Prompt: # repeat for CCCCC(CC)CN1CN(CC(CC)CCCC)CC(C)(N)C1 (stereo not drawn)
Response: NO

Prompt: # repeat for `CCCCCCCC/C=C\CCCCCCCCN`
Response: NO

Prompt: # repeat for `O=c1[nH]c(=O)n([C@H]2C[C@H](O)[C@@H](CO)O2)cc1F`
Response: NO

Prompt: # repeat for `NS(=O)(=O)c1ccc(Cl)c(S(N)(=O)=O)c1`
Response: NO

Prompt: # repeat for `CC(=O)N[C@@H](CCC(=O)O)C(=O)O`
Response: NO

Prompt: # repeat for `CCOc1ccc(NC(C)=O)cc1`
Response: NO

Prompt: # repeat for `CCN1/C(=C/C=C/c2sc3ccccc3[n+]2CC)Sc2ccccc21`
Response: YES

Prompt: # repeat for `O=C(O)C1(C(=O)O)CCC1.[NH2-].[NH2-].[Pt+2]`
Response: NO

Prompt: # repeat for `CCCCCCCCCCCCCC(=O)OC(C)C`
Response: NO

Prompt: # repeat for `COc1cc(O)c(C(=O)c2ccccc2)cc1S(=O)(=O)O`
Response: NO

Prompt: # repeat for `C[C@]12CCC(=O)C=C1C=C[C@@H]1[C@@H]2CC[C@@]2(C)[C@H]1CC[C@@]21CCC(=O)O1`
Response: NO

Prompt: # repeat for `Cc1cccc(C)c1NC(=O)CN1CCCC1`
Response: NO

Prompt: # repeat for `Cc1cn([C@H]2C[C@H](F)[C@@H](CO)O2)c(=O)[nH]c1=O`
Response: NO

Prompt: # repeat for `Oc1ccccc1C=NCc1ccccc1`
Response: NO

Prompt: # repeat for `CC(=C(CCOC(=O)C(C)C)SSC(CCOC(=O)C(C)C)=C(C)N(C=O)Cc1cnc(C)nc1N)N(C=O)Cc1cnc(C)nc1N`
Response: NO

Prompt: # repeat for `CCCCNC(=O)NS(=O)(=O)c1ccc(N)cc1`
Response: NO

Prompt: # repeat for `CN=C(N)NCCC[C@H](N)C(=O)O`
Response: NO

Prompt: # repeat for `C[C@@H](O)[C@H]1C(=O)N2C(C(=O)O)=C(S[C@@H]3CN[C@H](CNS(N)(=O)=O)C3)[C@H](C)[C@H]12`
Response: NO

Prompt: # repeat for `COc1ccc(C(=O)c2ccccc2)c(O)c1`
Response: NO

Prompt: # repeat for `Nc1ccc(C(=O)NCC(=O)O)cc1`
Response: NO

* * *

Protocol: Cell Viability - NIH 3T3 (AID 541);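 also: cells exposed to compound for 40 hours; plate controls were DMSO alone for no effect and tamoxifen positive control for full effect; nearly all actives have a fitted effect of over 25% in size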
Experimental Setup: NIH 3T3 cell viability, qHTS; at 92.2 µM (top of the series)
Records with an inconclusive call do not appear.
Property Measured: activity change, negative = cytotoxicity (%)
All answers are understood in %, so give the number only.

>>> reported("CCCN(CCC)S(=O)(=O)c1ccc(C(=O)O)cc1")
-2.58

Prompt: Report activity change, negative = cytotoxicity for `Oc1c(Cl)cc(Cl)c(Cl)c1Cc1c(O)c(Cl)cc(Cl)c1Cl` please.
Response: -102

Prompt: # repeat for `C/C=C/c1ccc(O)c(OC)c1`
Response: -17

Prompt: # repeat for `OC[C@H]1O[C@@H]2O[C@H]3[C@H](O)[C@@H](O)[C@@H](O[C@H]4[C@H](O)[C@@H](O)[C@@H](O[C@H]5[C@H](O)[C@@H](O)[C@@H](O[C@H]6[C@H](O)[C@@H](O)[C@@H](O[C@H]7[C@H](O)[C@@H](O)[C@@H](O[C@H]8[C@H](O)[C@@H](O)[C@@H](O[C@H]1[C@H](O)[C@H]2O)O[C@@H]8CO)O[C@@H]7CO)O[C@@H]6CO)O[C@@H]5CO)O[C@@H]4CO)O[C@@H]3CO`
Response: 5.27

* * *

max response for assorted compounds
Test system: HEK293
Protocol: Cytotoxic Profiling of Annotated Libraries Using Quantitative High-Throughput Screening (AID 1296008); also: % is scaled to controls: 0 for no effect and ±100 for the full control effect; nearly all actives have a fitted effect of over 60% in size
Experimental Setup: Five cell lines viability, CellTiter-Glo ATP luminescence, 48-72 h; active compounds read low
Inconclusive results are not listed.
All answers are understood in %, so give the number only.

Answered cases to consult:
>>> reported("N#C/C(=C1\\SCC(c2ccccc2Cl)S1)n1ccnc1 (stereo not given)")
-7.28
>>> reported("FC(F)(F)C(F)(F)C(F)(F)C(F)(F)C(F)(F)C(F)(F)C(F)(F)C(F)(F)Br")
0.523

Prompt: Report max response for `NS(=O)(=O)Cc1noc2ccccc12` please.
Response: -4.5

Prompt: # repeat for `CC(C)(C)CC(C)(C)c1ccc(O)c(-n2nc3ccccc3n2)c1`
Response: -0.0454

* * *

max response for assorted compounds
Test system: NIH3T3
Protocol: Cytotoxic Profiling of Annotated Libraries Using Quantitative High-Throughput Screening (AID 1296008); also: % is scaled to controls: 0 for no effect and ±100 for the full control effect; nearly all actives have a fitted effect of over 60% in size
Experimental Setup: Five cell lines viability, CellTiter-Glo ATP luminescence, 48-72 h; active compounds read low
Inconclusive results are not listed.
All answers are understood in %, so give the number only.

Answered cases to consult:
>>> reported("O=C(c1ccc(F)cc1)C1CCN(CCn2c(=S)[nH]c3ccccc3c2=O)CC1")
-46.6
>>> reported("CCc1oc2ccccc2c1C(=O)c1cc(Br)c(O)c(Br)c1")
-25.3
>>> reported("CCN(CC)CCOC(=O)C(Cc1cccc2ccccc12)CC1CCCO1 (configuration not stated)")
3.27
>>> reported("CCCCCCCCOc1ccc(C(=O)c2ccccc2)c(O)c1")
-1.51
>>> reported("COc1cc(N)c(Cl)cc1C(=O)NC1CCN(Cc2ccccc2)CC1")
-4.33

Prompt: Report max response for `O=C(O)P(=O)(O)O` please.
Response: 4.83

Prompt: # repeat for `CC(C)Cc1ccc(CC(=O)O)cc1`
Response: 2.82

Prompt: # repeat for CC(CNC1CCCCC1)OC(=O)c1ccccc1 (configuration not stated)
Response: 0.669

Prompt: # repeat for `CN(C)CCC[C@@]1(c2ccc(F)cc2)OCc2cc(C#N)ccc21`
Response: 0.771

Prompt: # repeat for `COc1ccc(C(=O)c2ccccc2O)c(O)c1`
Response: 1.03

Prompt: # repeat for `CO[C@]12C[C@@H](COC(=O)c3cncc(Br)c3)CN(C)[C@@H]1Cc1cn(C)c3cccc2c13`
Response: 0.842

Prompt: # repeat for `CCOCCn1c(N2CCCN(C)CC2)nc2ccccc21`
Response: -0.586

Just for reference, PubChem BioAssay (NCATS) is where these values come from.
